Target: Carbonic anhydrase 12 (Homo sapiens)
Sequence (O43570 whole entry): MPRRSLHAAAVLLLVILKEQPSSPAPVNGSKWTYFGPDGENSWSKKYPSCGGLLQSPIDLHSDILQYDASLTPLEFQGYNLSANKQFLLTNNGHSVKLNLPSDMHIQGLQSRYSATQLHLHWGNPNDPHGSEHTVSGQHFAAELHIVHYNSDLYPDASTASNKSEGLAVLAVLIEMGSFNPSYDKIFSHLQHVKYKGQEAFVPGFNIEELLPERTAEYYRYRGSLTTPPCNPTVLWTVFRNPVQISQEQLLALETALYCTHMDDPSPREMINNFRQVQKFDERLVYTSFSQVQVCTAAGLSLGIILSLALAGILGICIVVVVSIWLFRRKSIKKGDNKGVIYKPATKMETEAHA
Experiment: Inhibition of recombinant human carbonic anhydrase-12 incubated for 15 mins by stopped-flow CO2 hydrase assay
REPORTED_PROPERTY: pKi
For clarity, pKi is expressed as the negative log10 of concentration in mol/L.

Just so you know, measured pKi for CC(C(=O)NCCCCOc1ccc(S(N)(=O)=O)cc1)c1cccc(C(=O)c2ccccc2)c1 (racemic) came out at 8.39

For reference, reported pKi for CC(C(=O)Nc1ccc(S(N)(=O)=O)cc1)c1ccc(-c2ccccc2)c(F)c1 (racemic) stands at 7.40

Summary for this molecule, COc1ccc2cc(C(C)C(=O)NCCOc3ccc(S(N)(=O)=O)cc3)ccc2c1 (racemic) : pKi is 8.12

Lab note: CC1=C(CC(=O)NCCCOc2ccc(S(N)(=O)=O)cc2)c2cc(F)ccc2/C1=C/c1ccc([S+](C)[O-])cc1 (configuration not stated) gave pKi of 7.46

pKi for CC1=C(CC(=O)NCCCCOc2ccc(S(N)(=O)=O)cc2)c2cc(F)ccc2/C1=C/c1ccc([S+](C)[O-])cc1 (configuration not stated) is 8.30

***
The recorded pKi for entry COc1ccc2cc(C(C)C(=O)Nc3ccc(S(N)(=O)=O)cc3)ccc2c1 (racemic) equals 7.55

According to the records, this molecule CC1=C(CC(=O)NCCc2ccc(S(N)(=O)=O)cc2)c2cc(F)ccc2/C1=C/c1ccc([S+](C)[O-])cc1 (configuration not stated) displays pKi of 7.03

pKi recorded for this molecule, CC(C(=O)NCCCCOc1ccc(S(N)(=O)=O)cc1)c1ccc(-c2ccccc2)c(F)c1 (configuration not stated) , is 7.03

get_value(item= NS(=O)(=O)c1ccc(CCNC(=O)C2CCn3c(C(=O)c4ccccc4)ccc32)cc1 (configuration not stated) , readout=pKi) returns 7.04
